# procedure.text: Phagocytic activity was assessed in a carbon clearance assay and stimulation index was reported in male DDY mice at the dose of 1 mg/kg; Kt/Kc
# Format: functional
property.label: Ratio

compound="NC(CCCC(NC(=O)CCC(N)C(=O)O)C(=O)O)C(=O)O (centres undefined)" property_label=Ratio data_value=1.1

Would you kindly share the measured Ratio for CCCCCCCCCCCCCCCCCC(=O)NC(CCC(=O)NC(CCCC(N)C(=O)O)C(=O)O)C(=O)O (centres undefined) ? 2.4

Would you kindly share the measured Ratio for CC(O)C(=O)NC(C)C(=O)NC(CCC(=O)NC(CCCC(N)C(=O)O)C(=O)NCC(=O)O)C(=O)O (centres undefined) ? 1.9

Would you kindly share the measured Ratio for CCCCCCCC(=O)NC(CCC(=O)NC(CCCC(N)C(=O)O)C(=O)O)C(=O)O (centres undefined) ? 2.4

Origin of values: ChEMBL document CHEMBL1122029
